Exercise: state measured pIC50 for each of the compounds provided.
system-name: UniProt P36897
Sequence (P36897 whole entry): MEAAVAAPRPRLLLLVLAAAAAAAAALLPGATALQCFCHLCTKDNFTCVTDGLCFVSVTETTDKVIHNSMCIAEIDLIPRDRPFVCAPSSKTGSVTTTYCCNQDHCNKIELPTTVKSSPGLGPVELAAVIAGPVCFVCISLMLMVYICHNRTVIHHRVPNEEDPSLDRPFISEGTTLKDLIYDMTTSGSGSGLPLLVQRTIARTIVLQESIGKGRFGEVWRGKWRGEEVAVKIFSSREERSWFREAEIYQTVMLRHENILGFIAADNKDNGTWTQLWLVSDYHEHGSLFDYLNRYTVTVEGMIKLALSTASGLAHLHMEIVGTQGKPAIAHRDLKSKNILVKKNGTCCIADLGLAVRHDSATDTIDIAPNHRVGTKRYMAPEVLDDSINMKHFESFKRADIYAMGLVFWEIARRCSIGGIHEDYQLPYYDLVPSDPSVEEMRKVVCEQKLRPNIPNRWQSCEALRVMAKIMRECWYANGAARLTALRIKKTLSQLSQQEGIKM
test: Inhibition of recombinant human GST-fused ALK5 expressed in baculovirus infected Sf9 cells assessed as incoporation of [33]Pi after 60 mins in presence of [gamma-33P]-ATP by microplate scintillation counter method
Here pIC50 is given on a logarithmic scale as minus log10 of the concentration in mol/L.

Query: Fill in the blank: the reported pIC50 of "Cc1cccc(NCc2nc(-c3ccc4[nH]ncc4c3)c(-c3cccc(C)n3)[nH]2)c1" is ____.
Result: 8.10

Query: Fill in the blank: the reported pIC50 of "Cc1cccc(-c2[nH]c(CNc3ccc(F)cc3)nc2-c2ccc3c(cnn3C)c2)n1" is ____.
Result: 7.80

Query: Fill in the blank: the reported pIC50 of "Cc1cccc(-c2[nH]c(CNc3cccc(F)c3)nc2-c2ccc3c(cnn3C)c2)n1" is ____.
Result: 7.96

Query: Fill in the blank: the reported pIC50 of "Cc1cccc(-c2[nH]c(CNc3cccc(F)c3)nc2-c2ccc3[nH]ncc3c2)n1" is ____.
Result: 8.40

Query: Fill in the blank: the reported pIC50 of "Cc1cccc(-c2[nH]c(CNc3ccccc3)nc2-c2ccc3[nH]ncc3c2)n1" is ____.
Result: 8.40

----------
system-name: Mitogen-activated protein kinase 14 (Homo sapiens, UniProt Q16539)
Sequence (Q16539 whole entry): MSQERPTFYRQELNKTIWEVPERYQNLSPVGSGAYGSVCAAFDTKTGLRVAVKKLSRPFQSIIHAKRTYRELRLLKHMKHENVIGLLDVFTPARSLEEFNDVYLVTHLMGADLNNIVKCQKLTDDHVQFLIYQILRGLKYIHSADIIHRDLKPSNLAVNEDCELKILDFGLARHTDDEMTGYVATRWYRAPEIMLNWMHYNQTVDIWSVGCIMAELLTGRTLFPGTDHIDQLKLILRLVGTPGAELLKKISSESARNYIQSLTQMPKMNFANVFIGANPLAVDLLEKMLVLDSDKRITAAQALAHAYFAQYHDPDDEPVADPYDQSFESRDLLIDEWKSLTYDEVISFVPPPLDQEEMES
test: Inhibition of recombinant human p38alpha expressed in Escherichia coli assessed as incoporation of [33]Pi after 60 mins in presence of [gamma-33P]-ATP by microplate scintillation counter method
Kindly apply the following: TRUE if IC50 is less than 70 nM, FALSE in every other case.

Query: Just wondering, is IC50 of "Cc1cccc(-c2[nH]c(CNc3ccc(F)cc3)nc2-c2ccc3[nH]ncc3c2)n1" below 70 nM?
Result: TRUE

Query: Just wondering, is IC50 of "Cc1cccc(-c2[nH]c(CNc3cccc(F)c3)nc2-c2ccc3[nH]ncc3c2)n1" below 70 nM?
Result: TRUE

Query: Just wondering, is IC50 of "Cc1ccc(NCc2nc(-c3ccc4[nH]ncc4c3)c(-c3cccc(C)n3)[nH]2)cc1" below 70 nM?
Result: FALSE

Query: Just wondering, is IC50 of "Cc1cccc(-c2[nH]c(CNc3ccccc3)nc2-c2ccc3c(cnn3C)c2)n1" below 70 nM?
Result: TRUE

----------
Exercise: state measured pIC50 for each of the compounds provided.
system-name: Mitogen-activated protein kinase 14 (Homo sapiens, UniProt Q16539)
test: Inhibition of recombinant human p38alpha expressed in Escherichia coli assessed as incoporation of [33]Pi after 60 mins in presence of [gamma-33P]-ATP by microplate scintillation counter method
Here pIC50 is given on a logarithmic scale as minus log10 of the concentration in mol/L.

Query: Fill in the blank: the reported pIC50 of "Cc1cccc(-c2[nH]c(CNc3cccc(F)c3)nc2-c2ccc3c(cnn3C)c2)n1" is ____.
Result: 7.59

Query: Fill in the blank: the reported pIC50 of "Cc1cccc(-c2[nH]c(CNc3ccccc3)nc2-c2ccc3[nH]ncc3c2)n1" is ____.
Result: 7.89

Query: Fill in the blank: the reported pIC50 of "Cc1cccc(-c2[nH]c(CNc3ccccc3F)nc2-c2ccc3[nH]ncc3c2)n1" is ____.
Result: 7.70

Query: Fill in the blank: the reported pIC50 of "Cc1cccc(NCc2nc(-c3ccc4c(cnn4C)c3)c(-c3cccc(C)n3)[nH]2)c1" is ____.
Result: 7.64

Query: Fill in the blank: the reported pIC50 of "Cc1cccc(NCc2nc(-c3ccc4[nH]ncc4c3)c(-c3cccc(C)n3)[nH]2)c1" is ____.
Result: 7.49

Query: Fill in the blank: the reported pIC50 of "Cc1cccc(-c2[nH]c(CNc3ccc(F)cc3)nc2-c2ccc3c(cnn3C)c2)n1" is ____.
Result: 6.95

Query: Fill in the blank: the reported pIC50 of "Cc1ccc(NCc2nc(-c3ccc4c(cnn4C)c3)c(-c3cccc(C)n3)[nH]2)cc1" is ____.
Result: 6.25

Query: Fill in the blank: the reported pIC50 of "Cc1cccc(-c2[nH]c(CNc3ccccc3C)nc2-c2ccc3[nH]ncc3c2)n1" is ____.
Result: 7.64

Query: Fill in the blank: the reported pIC50 of "Cc1cccc(-c2[nH]c(CNc3ccccc3F)nc2-c2ccc3c(cnn3C)c2)n1" is ____.
Result: 7.02

----------
system-name: TGF-beta receptor type-1 (Homo sapiens)
test: Inhibition of recombinant human GST-fused ALK5 expressed in baculovirus infected Sf9 cells assessed as incoporation of [33]Pi after 60 mins in presence of [gamma-33P]-ATP by microplate scintillation counter method
readout-kind: pIC50
Here pIC50 is given on a logarithmic scale as minus log10 of the concentration in mol/L.

Query: Fill in the blank: the reported pIC50 of "Cc1ccc(NCc2nc(-c3ccc4c(cnn4C)c3)c(-c3cccc(C)n3)[nH]2)cc1" is ____.
Result: 7.47

Query: Fill in the blank: the reported pIC50 of "Cc1ccc(NCc2nc(-c3ccc4[nH]ncc4c3)c(-c3cccc(C)n3)[nH]2)cc1" is ____.
Result: 8.05

Query: Fill in the blank: the reported pIC50 of "Cc1cccc(-c2[nH]c(CNc3ccccc3)nc2-c2ccc3c(cnn3C)c2)n1" is ____.
Result: 7.85

Query: Fill in the blank: the reported pIC50 of "Cc1cccc(-c2[nH]c(CNc3ccccc3C)nc2-c2ccc3c(cnn3C)c2)n1" is ____.
Result: 7.62

Query: Fill in the blank: the reported pIC50 of "Cc1cccc(-c2[nH]c(CNc3ccccc3F)nc2-c2ccc3[nH]ncc3c2)n1" is ____.
Result: 8.30

Query: Fill in the blank: the reported pIC50 of "Cc1cccc(-c2[nH]c(CNc3ccccc3F)nc2-c2ccc3c(cnn3C)c2)n1" is ____.
Result: 7.89

Query: Fill in the blank: the reported pIC50 of "Cc1cccc(-c2[nH]c(CNc3ccc(F)cc3)nc2-c2ccc3[nH]ncc3c2)n1" is ____.
Result: 8.22

Query: Fill in the blank: the reported pIC50 of "Cc1cccc(NCc2nc(-c3ccc4c(cnn4C)c3)c(-c3cccc(C)n3)[nH]2)c1" is ____.
Result: 8.00

Query: Fill in the blank: the reported pIC50 of "Cc1cccc(-c2[nH]c(CNc3ccccc3C)nc2-c2ccc3[nH]ncc3c2)n1" is ____.
Result: 8.30

// data source = ChEMBL document CHEMBL4732251
